Ref: ChEMBL document CHEMBL3994579

- Tested on: Staphylococcus aureus
- test: Antibacterial activity against erythromycin-susceptible Staphylococcus aureus ATCC 25923 by broth microdilution method
- Format: functional
Reported MIC by item:
Answer format: numeric, µg/mL implied, no suffix.

Requested read-out MIC, target or system Staphylococcus aureus, entry `CC[C@H]1OC(=O)[C@H](C)[C@@H](O)[C@H](C)[C@@H](O[C@@H]2O[C@H](C)C[C@H](N(C)C)[C@H]2OC(=O)Nc2ccccc2C)[C@](C)(O)C[C@@H](C)CN(C)[C@H](C)[C@H]2OC(=O)O[C@@]21C` 4

What do we get for `CC[C@H]1OC(=O)[C@H](C)[C@@H](OC(=O)Nc2ccccc2F)[C@H](C)[C@@H](O[C@@H]2O[C@H](C)C[C@H](N(C)C)[C@H]2OC(C)=O)[C@](C)(O)C[C@@H](C)CN(C)[C@H](C)[C@H]2OC(=O)O[C@@]21C` ? 32

What do we get for `CC[C@H]1OC(=O)[C@H](C)[C@@H](OC(=O)Nc2cccc(C)c2)[C@H](C)[C@@H](O[C@@H]2O[C@H](C)C[C@H](N(C)C)[C@H]2O)[C@](C)(O)C[C@@H](C)CN(C)[C@H](C)[C@@H](OC(=O)NCc2ccc(C)cc2)[C@]1(C)O` ? 8

What do we get for `CC[C@H]1OC(=O)[C@H](C)[C@@H](OC(=O)Nc2cccc(Cl)c2)[C@H](C)[C@@H](O[C@@H]2O[C@H](C)C[C@H](N(C)C)[C@H]2O)[C@](C)(O)C[C@@H](C)CN(C)[C@H](C)[C@H]2OC(=O)O[C@@]21C` ? 8

----------
- Test system: Streptococcus pyogenes
- test: Antibacterial activity against erythromycin-resistant Streptococcus pyogenes R1 clinical isolate by broth microdilution method
- Assay type: functional
Reported MIC by item:
Answer format: numeric, µg/mL implied, no suffix.

Take a look at these entries with their results.
CC[C@H]1OC(=O)[C@H](C)[C@@H](OC(=O)Nc2ccccc2)[C@H](C)[C@@H](O[C@@H]2O[C@H](C)C[C@H](N(C)C)[C@H]2O)[C@](C)(O)C[C@@H](C)CN(C)[C@H](C)[C@@H](OC(=O)NCc2ccc(C)cc2)[C@]1(C)O; 64
CCCCCNC(=O)O[C@H]1[C@H](C)[C@@H](O[C@@H]2O[C@H](C)C[C@H](N(C)C)[C@H]2OC(C)=O)[C@](C)(O)C[C@@H](C)CN(C)[C@H](C)[C@H]2OC(=O)O[C@]2(C)[C@@H](CC)OC(=O)[C@@H]1C; 128
CC[C@H]1OC(=O)[C@H](C)[C@@H](OC(=O)Nc2ccc(C(F)(F)F)cc2)[C@H](C)[C@@H](O[C@@H]2O[C@H](C)C[C@H](N(C)C)[C@H]2O)[C@](C)(O)C[C@@H](C)CN(C)[C@H](C)[C@H]2OC(=O)O[C@@]21C; 64
CC[C@H]1OC(=O)[C@H](C)[C@@H](O)[C@H](C)[C@@H](O[C@@H]2O[C@H](C)C[C@H](N(C)C)[C@H]2OC(=O)n2ccnc2)[C@](C)(O)C[C@@H](C)CN(C)[C@H](C)[C@H]2OC(=O)O[C@@]21C; 256
CC[C@H]1OC(=O)[C@H](C)[C@@H](OC(=O)Nc2cccc(C)c2)[C@H](C)[C@@H](O[C@@H]2O[C@H](C)C[C@H](N(C)C)[C@H]2O)[C@](C)(O)C[C@@H](C)CN(C)[C@H](C)[C@@H](OC(=O)NCc2ccc(C)cc2)[C@]1(C)O; 32
CC[C@H]1OC(=O)[C@H](C)[C@@H](OC(=O)Nc2cccc(C)c2)[C@H](C)[C@@H](O[C@@H]2O[C@H](C)C[C@H](N(C)C)[C@H]2O)[C@](C)(O)C[C@@H](C)CN(C)[C@H](C)[C@H]2OC(=O)O[C@@]21C; 32

Field request: MIC | item: `CC[C@H]1OC(=O)[C@H](C)[C@@H](OC(=O)Nc2ccccc2)[C@H](C)[C@@H](O[C@@H]2O[C@H](C)C[C@H](N(C)C)[C@H]2O)[C@](C)(O)C[C@@H](C)CN(C)[C@H](C)[C@H]2OC(=O)O[C@@]21C` 8

What do we get for `CC[C@H]1OC(=O)[C@H](C)[C@@H](OC(=O)Nc2cccc(C)c2)[C@H](C)[C@@H](O[C@@H]2O[C@H](C)C[C@H](N(C)C)[C@H]2O)[C@](C)(O)C[C@@H](C)CN(C)[C@H](C)[C@@H](OC(=O)NCc2ccccc2Cl)[C@]1(C)O` ? 32

----------
Reported MIC by item:
- System: Streptococcus pyogenes
- test: Antibacterial activity against erythromycin-resistant Streptococcus pyogenes R1 clinical isolate by broth microdilution method
- Assay type: functional
Answer format: numeric, µg/mL implied, no suffix.

CC[C@H]1OC(=O)[C@H](C)[C@@H](OC(=O)n2ccnc2)[C@H](C)[C@@H](O[C@@H]2O[C@H](C)C[C@H](N(C)C)[C@H]2OC(C)=O)[C@](C)(O)C[C@@H](C)CN(C)[C@H](C)[C@H]2OC(=O)O[C@@]21C; 56

Pending compound:
Field request: MIC | item: `CC[C@H]1OC(=O)[C@H](C)[C@@H](OC(=O)Nc2ccccc2C)[C@H](C)[C@@H](O[C@@H]2O[C@H](C)C[C@H](N(C)C)[C@H]2OC(C)=O)[C@](C)(O)C[C@@H](C)CN(C)[C@H](C)[C@H]2OC(=O)O[C@@]21C` 256

----------
- Test system: Staphylococcus aureus
- test: Antibacterial activity against erythromycin-susceptible Staphylococcus aureus ATCC 25923 by broth microdilution method
- Assay type: functional
Reported MIC by item:
Answer format: numeric, µg/mL implied, no suffix.

CC[C@H]1OC(=O)[C@H](C)[C@@H](OC(=O)Nc2cccc(C)c2)[C@H](C)[C@@H](O[C@@H]2O[C@H](C)C[C@H](N(C)C)[C@H]2O)[C@](C)(O)C[C@@H](C)CN(C)[C@H](C)[C@@H](OC(=O)NCc2ccc(OC)cc2)[C@]1(C)O; 16

Field request: MIC | item: `CC[C@H]1OC(=O)[C@H](C)[C@@H](OC(=O)Nc2ccccc2Cl)[C@H](C)[C@@H](O[C@@H]2O[C@H](C)C[C@H](N(C)C)[C@H]2O)[C@](C)(O)C[C@@H](C)CN(C)[C@H](C)[C@H]2OC(=O)O[C@@]21C` 8

What do we get for `CC[C@H]1OC(=O)[C@H](C)[C@@H](O)[C@H](C)[C@@H](O[C@@H]2O[C@H](C)C[C@H](N(C)C)[C@H]2OC(=O)Nc2cccc(C)c2)[C@](C)(O)C[C@@H](C)CN(C)[C@H](C)[C@H]2OC(=O)O[C@@]21C` ? 32

What do we get for CC[C@H]1OC(=O)[C@H](C)[C@@H](O[C@H]2C[C@@](C)(OC)[C@@H](O)[C@H](C)O2)[C@H](C)[C@@H](O[C@@H]2O[C@H](C)C[C@H](N(C)C)[C@H]2O)[C@](C)(O)C[C@@H](C)CN(C)[C@H](C)[C@@H](O)[C@]1(C)O [AZITHROMYCIN] ? 0.25

What do we get for `CC[C@H]1OC(=O)[C@H](C)[C@@H](OC(=O)Nc2ccccc2F)[C@H](C)[C@@H](O[C@@H]2O[C@H](C)C[C@H](N(C)C)[C@H]2O)[C@](C)(O)C[C@@H](C)CN(C)[C@H](C)[C@H]2OC(=O)O[C@@]21C` ? 8

What do we get for `CC[C@H]1OC(=O)[C@H](C)[C@@H](O)[C@H](C)[C@@H](O[C@@H]2O[C@H](C)C[C@H](N(C)C)[C@H]2OC(=O)Nc2cccc(F)c2)[C@](C)(O)C[C@@H](C)CN(C)[C@H](C)[C@H]2OC(=O)O[C@@]21C` ? 32

What do we get for `CC[C@H]1OC(=O)[C@H](C)[C@@H](OC(=O)Nc2ccccc2)[C@H](C)[C@@H](O[C@@H]2O[C@H](C)C[C@H](N(C)C)[C@H]2O)[C@](C)(O)C[C@@H](C)CN(C)[C@H](C)[C@@H](OC(=O)NCc2ccccc2)[C@]1(C)O` ? 32

What do we get for `CC[C@H]1OC(=O)[C@H](C)[C@@H](OC(=O)Nc2ccccc2C)[C@H](C)[C@@H](O[C@@H]2O[C@H](C)C[C@H](N(C)C)[C@H]2OC(C)=O)[C@](C)(O)C[C@@H](C)CN(C)[C@H](C)[C@H]2OC(=O)O[C@@]21C` ? 16

----------
Reported MIC by item:
- Test system: Streptococcus pneumoniae
- test: Antibacterial activity against erythromycin-resistant Streptococcus pneumoniae B1 expressing ermB gene by broth microdilution method
- Type: functional
Answer format: numeric, µg/mL implied, no suffix.

CC[C@H]1OC(=O)[C@H](C)[C@@H](OC(=O)Nc2ccccc2)[C@H](C)[C@@H](O[C@@H]2O[C@H](C)C[C@H](N(C)C)[C@H]2O)[C@](C)(O)C[C@@H](C)CN(C)[C@H](C)[C@@H](OC(=O)NCc2ccccc2)[C@]1(C)O; 128
CC[C@H]1OC(=O)[C@H](C)[C@@H](O)[C@H](C)[C@@H](O[C@@H]2O[C@H](C)C[C@H](N(C)C)[C@H]2OC(=O)Nc2cccc(Cl)c2)[C@](C)(O)C[C@@H](C)CN(C)[C@H](C)[C@H]2OC(=O)O[C@@]21C; 64
CC[C@H]1OC(=O)[C@H](C)[C@@H](OC(=O)Nc2cccc(C)c2)[C@H](C)[C@@H](O[C@@H]2O[C@H](C)C[C@H](N(C)C)[C@H]2O)[C@](C)(O)C[C@@H](C)CN(C)[C@H](C)[C@@H](OC(=O)NCc2ccccc2Cl)[C@]1(C)O; 8

Field request: MIC | item: `CC[C@H]1OC(=O)[C@H](C)[C@@H](OC(=O)Nc2cccc(C)c2)[C@H](C)[C@@H](O[C@@H]2O[C@H](C)C[C@H](N(C)C)[C@H]2O)[C@](C)(O)C[C@@H](C)CN(C)[C@H](C)[C@@H](OC(=O)NCc2ccc(C)cc2)[C@]1(C)O` 64
